Known logD of a selection of compounds
assay: Distribution coefficient, log D of the compound at pH 7.4; format: physicochemical; details: octanol/water

# count of solved cases: 3
Clc1cc(NCC2CC2)c2ncc(-c3ccc4[nH]ncc4c3)n2n1    3.4
CN1CCC(Nc2cc(Cl)nn3c(-c4ccc5[nH]c(Nc6ccccc6)nc5c4)cnc23)CC1    2.7
CN1CCC(Nc2cc(Cl)nn3c(-c4ccc5[nH]ncc5c4)cnc23)CC1    1.8

Then this compound:
query: Param item = Clc1cc(NCC2CC2)c2ncc(-c3ccc4[nH]c(Nc5ccccc5)nc4c3)n2n1 ; retrieve measured logD.
result: 4.1

###

Known pIC50 of a selection of compounds
molecular target: Serine/threonine-protein kinase/endoribonuclease IRE1 (Homo sapiens); assay: Displacement for LanthaScreen tracer from dephosphorylated IRE1alpha (G547 to L977 residues) (unknown origin) ATP binding site […] after 60 mins by FRET assay
Sequence (O75460 whole entry, the tested form may be a part): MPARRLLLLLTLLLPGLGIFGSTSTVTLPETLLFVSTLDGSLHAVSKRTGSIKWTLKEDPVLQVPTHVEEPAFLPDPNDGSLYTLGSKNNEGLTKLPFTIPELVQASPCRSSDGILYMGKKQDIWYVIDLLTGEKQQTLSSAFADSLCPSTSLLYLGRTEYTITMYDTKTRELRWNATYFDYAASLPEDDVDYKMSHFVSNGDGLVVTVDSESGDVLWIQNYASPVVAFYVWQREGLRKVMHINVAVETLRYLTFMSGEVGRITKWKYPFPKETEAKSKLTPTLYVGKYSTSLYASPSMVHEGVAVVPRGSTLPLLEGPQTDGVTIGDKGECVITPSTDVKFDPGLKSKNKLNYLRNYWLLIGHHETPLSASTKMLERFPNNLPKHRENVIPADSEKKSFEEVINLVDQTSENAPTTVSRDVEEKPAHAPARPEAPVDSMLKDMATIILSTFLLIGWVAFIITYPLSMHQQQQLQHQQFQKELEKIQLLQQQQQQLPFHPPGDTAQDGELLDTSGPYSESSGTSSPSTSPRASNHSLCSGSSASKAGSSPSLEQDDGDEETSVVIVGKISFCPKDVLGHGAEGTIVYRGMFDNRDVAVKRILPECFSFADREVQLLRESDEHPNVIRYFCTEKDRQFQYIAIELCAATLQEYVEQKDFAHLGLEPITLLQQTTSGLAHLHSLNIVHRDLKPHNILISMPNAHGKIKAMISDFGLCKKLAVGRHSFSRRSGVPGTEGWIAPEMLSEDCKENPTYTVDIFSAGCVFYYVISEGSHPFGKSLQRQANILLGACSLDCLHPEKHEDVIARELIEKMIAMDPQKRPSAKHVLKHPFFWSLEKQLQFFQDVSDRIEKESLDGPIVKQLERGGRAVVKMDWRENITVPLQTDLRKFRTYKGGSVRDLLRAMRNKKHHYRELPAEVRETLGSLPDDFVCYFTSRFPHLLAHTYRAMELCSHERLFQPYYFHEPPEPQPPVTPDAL
pIC50: −log10 of the molar value.

# count of solved cases: 2
Clc1cc(NCC2CC2)c2ncc(-c3ccc4cn[nH]c4c3)n2n1    < 5.00
Cn1ncc2cc(-c3cnc4c(NCC5CC5)cc(Cl)nn34)ccc21    < 5.00

query: Param item = CN(c1cc(Cl)nn2c(-c3ccc4[nH]ncc4c3)cnc12)[C@H]1CC[C@H](N)CC1 ; retrieve measured pIC50.
result: < 5.00

query: Again, but for CN1CCC(CNc2cc(Cl)nn3c(-c4cc5nc(Nc6ccccc6)[nH]c5cc4F)cnc23)CC1
result: 6.57

query: Again, but for Clc1cc(NCC2CC2)c2ncc(-c3ccc4[nH]ncc4c3)n2n1
result: 5.80

query: Again, but for CN(c1ccccc1)c1nc2cc(-c3cnc4c(NCC5CC5)cc(Cl)nn34)ccc2[nH]1
result: < 5.00

query: Again, but for O=C(CN1CCOCC1)N[C@H]1CC[C@H](Nc2cc(Cl)nn3c(-c4ccc5[nH]ncc5c4)cnc23)CC1
result: 7.06

query: Again, but for Cn1c(Nc2ccccc2)nc2cc(-c3cnc4c(NCC5CC5)cc(Cl)nn34)ccc21
result: < 5.00

The reported numbers originate from ChEMBL document CHEMBL4400547.
